- experiment_notes: Cytotoxicity against human PBMC
- Type: cell-based
- details: read-out: TC50 (the source's name)

{"columns": ["compound", "CC50"],
 "data": [
  ["Cc1cn([C@H]2C[C@H](N=[N+]=[N-])[C@@H](COC(=O)CCCCCCCCC(=O)OC[C@H]3O[C@@H](n4cc(C)c(=O)[nH]c4=O)C[C@@H]3N=[N+]=[N-])O2)c(=O)[nH]c1=O", "> 1 µM"],
  ["Cc1cn([C@H]2C[C@H](F)[C@@H](COC(=O)CCCCCCCCCCCCC(=O)OC[C@H]3O[C@@H](n4cc(C)c(=O)[nH]c4=O)C[C@@H]3F)O2)c(=O)[nH]c1=O", "> 1 µM"],
  ["Cc1cn([C@H]2C[C@H](F)[C@@H](COC(=O)CCCCCCCCC(=O)OC[C@H]3O[C@@H](n4cc(C)c(=O)[nH]c4=O)C[C@@H]3F)O2)c(=O)[nH]c1=O", "> 1 µM"],
  ["Nc1ccn([C@@H]2CS[C@H](COC(=O)CCCCCCCCC(=O)OC[C@@H]3O[C@H](n4ccc(N)nc4=O)CS3)O2)c(=O)n1", "> 1 µM"],
  ["Cc1cn([C@H]2C[C@H](N=[N+]=[N-])[C@@H](COC(=O)CCCCCCCCCCCCC(=O)OC[C@H]3O[C@@H](n4cc(C)c(=O)[nH]c4=O)C[C@@H]3N=[N+]=[N-])O2)c(=O)[nH]c1=O", "> 1 µM"],
  ["Cc1cn([C@H]2C[C@H](F)[C@@H](CO)O2)c(=O)[nH]c1=O [ALOVUDINE]", "> 0.5 µM"]
]}

###

- Test system: Human immunodeficiency virus 1
- experiment_notes: Antiviral activity against HIV-1 subtype B US/92/727 infected in PBMC assessed as inhibition of viral replication after 7 days by XTT assay
- Assay type: functional, organism-based
- details: Human immunodeficiency virus 1, subtype B US/92/727, 168 h
Each record gets a class by EC50: bin 1 = under 2 nM, bin 2 = from 2 nM up to 20 nM, bin 3 = 20 nM and over

{"columns": ["smiles", "class_name"],
 "data": [
  ["Cc1cn([C@H]2C[C@H](F)[C@@H](COC(=O)CCCCCCCCCCCCC(=O)OC[C@H]3O[C@@H](n4cc(C)c(=O)[nH]c4=O)C[C@@H]3F)O2)c(=O)[nH]c1=O", "bin 1"],
  ["Cc1cn([C@H]2C[C@H](N=[N+]=[N-])[C@@H](CO)O2)c(=O)[nH]c1=O", "bin 2"],
  ["Cc1cn([C@H]2C[C@H](F)[C@@H](COC(=O)CCCCCCCCC(=O)OC[C@H]3O[C@@H](n4cc(C)c(=O)[nH]c4=O)C[C@@H]3F)O2)c(=O)[nH]c1=O", "bin 1"],
  ["Cc1cn([C@H]2C[C@H](F)[C@@H](COC(=O)CCCCCCCCCCC(=O)OC[C@H]3O[C@@H](n4cc(C)c(=O)[nH]c4=O)C[C@@H]3F)O2)c(=O)[nH]c1=O", "bin 1"],
  ["Nc1ccn([C@@H]2CS[C@H](COC(=O)CCC(=O)OC[C@@H]3O[C@H](n4ccc(N)nc4=O)CS3)O2)c(=O)n1", "bin 3"],
  ["Nc1ccn([C@@H]2CS[C@H](COC(=O)CCCCCCCCC(=O)OC[C@@H]3O[C@H](n4ccc(N)nc4=O)CS3)O2)c(=O)n1", "bin 3"],
  ["Nc1ccn([C@@H]2CS[C@H](COC(=O)CCCCCCCCCCCCC(=O)OC[C@@H]3O[C@H](n4ccc(N)nc4=O)CS3)O2)c(=O)n1", "bin 3"],
  ["Cc1cn([C@H]2C[C@H](N=[N+]=[N-])[C@@H](COC(=O)CCCCCCCCCCCCC(=O)OC[C@H]3O[C@@H](n4cc(C)c(=O)[nH]c4=O)C[C@@H]3N=[N+]=[N-])O2)c(=O)[nH]c1=O", "bin 2"],
  ["Nc1ccn([C@@H]2CS[C@H](CO)O2)c(=O)n1", "bin 3"],
  ["Cc1cn([C@H]2C[C@H](N=[N+]=[N-])[C@@H](COC(=O)CCCCCCCCC(=O)OC[C@H]3O[C@@H](n4cc(C)c(=O)[nH]c4=O)C[C@@H]3N=[N+]=[N-])O2)c(=O)[nH]c1=O", "bin 2"]
]}
